The measured values listed here are drawn from patent US4892865A.

assay: Cytotoxicity in KB cells (inhibition of DNA, RNA and protein synthesis); type: cell-based; conditions: human, average of inhibition of DNA, read-out: 50% Inhibitory Concentration, Cytotoxicity: KB
Listed compounds paired with reported CC50
Write it as a number; the unit µM goes unstated.

| compound | property | reported value |
| --- | --- | --- |
| N#Cc1cn([C@H]2CC[C@@H](CO)O2)c2ncnc(N)c12 | CC50 | 54 |

Bench note: what CC50 did NC(=O)c1cn([C@H]2C=C[C@@H](CO)O2)c2ncnc(N)c12 [Dideoxydidehydrosangivamycin] show?
54

----------
system: Herpes Virus Type 1 (HSV-1); assay: HSV-1 plaque reduction in BSC-1 cells; format: cell-based; conditions: Human alphaherpesvirus 1, in Chlorocebus sabaeus; plaque reduction, BSC-1 cells; both the HF and 148 strains were used; read-out: 50% Inhibitory Concentration, Virus Tested: HSV-1
property: pIC50
To interpret pIC50, take it as minus log10 of a concentration measured in moles per litre.

| compound | tested system | pIC50 |
| --- | --- | --- |
| N#Cc1cn([C@H]2C=C[C@@H](CO)O2)c2ncnc(N)c12 [Dideoxydidehydrotoyocamycin] | Herpes Virus Type 1 (HSV-1) | 4.39 |

State the recorded pIC50 for this entry: N#Cc1cn([C@H]2CC[C@@H](CO)O2)c2ncnc(N)c12 [Dideoxytoyocamycin]
4.68
